Target: T1, human NAP2 (human, UniProt P02775 59-128)
T1 sequence (looked up): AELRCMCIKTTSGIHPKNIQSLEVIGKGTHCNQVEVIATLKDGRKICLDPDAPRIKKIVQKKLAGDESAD
Assay: cell-based or functional assay
RECORDED_ENDPOINT: FLIPR IC50

* 5D2.2D10 (antibody, V domains shown) VH: QIQLVQSGPELKKPGETVKISCKASGYIFTAYGMSWVKQAPGKGLKWMGWINTYSGVPTYADHFKGRFDFSLETSASTAYLQINNLKNEDTATYFCARPTVVDPWYFDVWGTGTTVTVSS VL: DIQMTQSPASLSVSVGETVTITCRASENIYSNLAWYQQKQGKSPQLLVYAATNLGDGVPSRFSGSGSGTQYSLKINSLQSEDFGSYYCQHFWTTPWTFGGGTKLEIK | > 200 µg/mL
* 1A1.4C6 (antibody, IgG1, V domains shown) VH: EVQLQQSGPELVKPGASVKISCKASGYTFIDYYMNWVKQSQGKSLEWIGDVNPDDGDTTYNQQFKDKATLTVDKSSSTAYMELRSLTSEDSAVYYCARDDRTSGYFDVWGTGTTVTVSS VL: DIQMTQSTSSLSASLGDRVTISCRASQDIRNYLNWFQQKPDGTVKLLIYYTSIVHSRVPSRFSGSGSGTDYSLTINNLDQEDIATYFCQQANTLPWTFGGGTKLETK | 123 µg/mL
* 17D1.1D2 (antibody, IgG2c, V domains shown) VH: EVQLQQSGPELVKPGASVKISCKASGYTFTDYYMNWLRQSHGKSLEWIGDINPNNGGTNYNQKFKNKATLTVDKSSSTAYMELRSLTSEDSAVFYCAGLGRIFDYWGQGTTLTVSS VL: ENVLTQSPAIMSAFPGEKVTMTCRASSSVSSTYLHWYQQKSGASPKLWIYSTSDLASGVPARFSGSGSGTSYSLTISSVEAEDAATYYCQQFSGYPWTFGGGTKLEIK | > 200 µg/mL
